- condition_notes: Table 2; human liver microsomes
recorded_endpoint: predicted human EH
Give bare numbers.

Record excerpt, results attached:
O=C([C@H](c1ccc(Cl)cc1)c1cccnc1)N1CCN(c2ccc(C(F)(F)F)cc2)CC1 [(R)-7] | 0.61
N#Cc1ccc(C(C(=O)N2CCN(c3ccc(C(F)(F)F)cn3)CC2)c2cccnc2)cc1 (stereo not shown) | 0.56
O=C(C(c1ccc(Cl)cc1)c1cccnc1)N1CCN(c2ccc(C(F)(F)F)nc2)CC1 (stereo not shown) | 0.77
CS(=O)(=O)c1ccc(N2CCN(C(=O)C(c3ccc(Cl)cc3)c3cccnc3)CC2)cc1 (stereo not shown) | 0.82
O=C([C@@H](c1ccc(Cl)cc1)c1cccnc1)N1CCN(c2ccc(C(F)(F)F)cc2)CC1 [(S)-7] | 0.53

Kindly give each listed record's predicted human EH.
1. O=C(C(c1ccc(Cl)cc1)c1cccnc1)N1CCN(c2ccc(C(F)(F)F)cn2)CC1 (stereo not shown)
2. N#Cc1ccc(C(C(=O)N2CCN(c3ccc(C(F)(F)F)cc3)CC2)c2cccnc2)cc1 (stereo not shown)
3. N#Cc1ccc(C(C(=O)N2CCN(c3ccc(C(F)(F)F)nc3)CC2)c2cccnc2)cc1 (stereo not shown)
4. O=C(C(c1ccc(Cl)cc1)c1cccnc1)N1CCN(c2ccc(C(F)(F)F)cc2)CC1 (racemic) [(rac)-7]
5. CS(=O)(=O)c1ccc(N2CCN(C(=O)C(c3ccc(C#N)cc3)c3cccnc3)CC2)cc1 (stereo not shown)

1. 0.70
2. 0.70
3. 0.56
4. 0.50
5. 0.46

Entry source: paper PMC3884847
